In this section, each of the compounds is paired with its reported inhibition at 1 µM.
Target: human PHD2 (Homo sapiens (Human), UniProt Q9GZT9)
Sequence (Q9GZT9 whole entry): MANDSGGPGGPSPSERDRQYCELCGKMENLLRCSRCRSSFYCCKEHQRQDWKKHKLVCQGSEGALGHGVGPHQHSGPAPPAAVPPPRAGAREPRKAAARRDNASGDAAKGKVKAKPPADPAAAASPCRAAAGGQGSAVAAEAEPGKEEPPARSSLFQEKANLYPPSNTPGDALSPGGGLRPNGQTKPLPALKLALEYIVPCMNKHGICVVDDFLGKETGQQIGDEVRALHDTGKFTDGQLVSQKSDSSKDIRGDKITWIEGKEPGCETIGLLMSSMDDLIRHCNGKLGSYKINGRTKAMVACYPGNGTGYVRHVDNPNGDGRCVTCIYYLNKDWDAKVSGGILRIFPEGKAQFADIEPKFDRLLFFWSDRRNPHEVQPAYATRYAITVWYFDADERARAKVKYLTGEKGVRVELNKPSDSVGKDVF
Assay: Test 2: human PHD2 inhibitory activity, fluorescence polarization assay of HIF-1α peptide proline hydroxylation
Format: biochemical
Conditions: test compound's concentration 1 μM; Test 2, fluorescence polarization assay; read-out: Percent inhibition (% at 1 μM)
Counter-ions that a name gives are not always drawn.

# compound, inhibition at 1 µM [%]
rows = [
    ("O=C(O)CNC(=O)C1=C(O)CCN(Cc2ccc(Oc3ccccc3F)nc2)C1=O", 94),
    ("COc1ncccc1-c1ccc(CN2CCC(O)=C(C(=O)NCC(=O)O)C2=O)cc1 [Ex. 2-3, sodium salt]", 92),
    ("CC1CC(O)=C(C(=O)NCC(=O)O)C(=O)N1CC1CCC(c2ccccc2)CC1 (stereo not shown)", 88),
    ("CC1CC(O)=C(C(=O)NCC(=O)O)C(=O)N1Cc1ccc(-c2ccc(C(F)(F)F)cc2)cc1 (stereo not shown)", 84),
]

These entries and their values trace back to patent US9422240B2.
